Reference for the values: paper PMC9324693

# Test system: MCF-7
# Experiment: MTT cell viability assay on MCF-7 cells
# Assay type: cell-based
# Run Parameters: 96-well plates, 4000 cells/well; viability after 3 days by MTT; mean ± SD of three independent experiments
pEC50: −log10 of the molar value.
Endpoint Label: pEC50

P. C#CCCCC1c2ccccc2C(=O)N1CCCC(=C(c1ccc(O)cc1)c1ccc(O)cc1)[c-]1cccc1.[Fe+2].c1cc[cH-]c1 (stereo not shown)
Q. O=C1c2ccccc2C(OCCOCCOCCOCCO)N1CCCC(=C(c1ccc(O)cc1)c1ccc(O)cc1)[c-]1cccc1.[Fe+2].c1cc[cH-]c1 (stereo not shown)
R. O=C1c2ccccc2C(CCO)N1CCCC(=C(c1ccc(O)cc1)c1ccc(O)cc1)[c-]1cccc1.[Fe+2].c1cc[cH-]c1 (stereo not shown)
Lab note: arrange the 3 compounds above from lowest to highest pEC50. # output: labels, in the requested order Q, R, P
